These data points were gathered from patent US20260116991A1.

As shown below, each of these binders has a reported OD450 at 1 nM antibody value.
target_or_system: T1, murine GPC3-his protein (Sino Biological, Cat. No. 50989-M08B) (murine, UniProt Q8CFZ4 25-558)
T1 construct: Bought protein; also called murine GPC3 protein
T1 sequence (Q8CFZ4 25-558 limits assumed): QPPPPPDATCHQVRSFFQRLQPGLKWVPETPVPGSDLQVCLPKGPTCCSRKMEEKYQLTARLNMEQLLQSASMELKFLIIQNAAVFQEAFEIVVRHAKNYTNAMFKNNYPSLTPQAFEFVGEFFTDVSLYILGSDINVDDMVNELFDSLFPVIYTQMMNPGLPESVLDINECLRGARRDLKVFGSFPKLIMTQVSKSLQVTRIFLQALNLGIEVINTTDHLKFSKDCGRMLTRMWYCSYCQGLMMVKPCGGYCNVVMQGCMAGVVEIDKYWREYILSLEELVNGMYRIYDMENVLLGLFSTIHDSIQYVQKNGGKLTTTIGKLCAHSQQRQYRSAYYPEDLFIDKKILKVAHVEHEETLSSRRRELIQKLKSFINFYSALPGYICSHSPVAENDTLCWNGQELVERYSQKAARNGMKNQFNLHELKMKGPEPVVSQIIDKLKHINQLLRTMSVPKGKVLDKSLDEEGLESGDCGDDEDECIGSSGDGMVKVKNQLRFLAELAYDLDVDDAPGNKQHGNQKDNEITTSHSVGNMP
procedure_details: ELISA, coated murine GPC3-His;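 also: antigen coated on plates at 1 µg/mL, test antibody bound for 2 h at 37 °C, detected with HRP-conjugated secondary antibody and TMB substrate after acid stop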
Number in OD450 nm, nothing else.

The cases that follow already have their OD450 at 1 nM antibody on record.
| binder | OD450 at 1 nM antibody / OD450 nm |
| --- | --- |
| F1.3.9 human-murine chimeric antibody (antibody, human IgG1, kappa, V domains shown) VH: QVQLQQPGTELVKPGASVKLSCKASGYTFTSYWIHWVKQRPGQGLEWIGNINPPNAGTNYNEKFKSKATLTVDKSSSTAYMQLSSLTSEDSAVYYCARGRWLLHDYWGQGTTLTVSS VL: DIQMTQSPASLSISVGETVTITCRASENIYSNLAWYQQKQGKSPQLLVYGTKNLAEGVPSRFSGSGSGTQYSLKINSLQSEDFGNYYCQHFWGTPYTFGGGTKLEILR | 0.18 |
| F4.13.7 human-murine chimeric antibody (antibody, human IgG1, kappa, V domains shown) VH: QVQLQQPGAELVKPGASVKLSCKASGYTFTNNWVHWVKQRPGQGLEWTGMIHPDSGSTIYNEKFQSKATLTVDKSSSTAYMQLSSLTSEDSAVYYCARGYYDSSSYYAMDYWGQGTSVTVSS VL: NIQMTQTTSSLSASLGDRVTISCSASQGIFNYLNWYQQKPDGTVKLLIYYTSSLHSGVPSRFSGSGSGTDYSLTISNLEPEDIATYYCQQYSKLPWTFGGGTKLEIKR | 2.86 |
| F3.54.12 human-murine chimeric antibody (antibody, human IgG1, kappa, V domains shown) VH: QVQLQQSGAELVRPGASVKLSCKASGYTFTDYEMHWVKQTPVHGLEWIGAIDPETGNTAYIQKFKGKATLTTDKSSSTAYMELRSLTSEDSAVYYCTRFYSYSHWGQGTTLTVSS VL: DVVMTQTPLSLPVSLGDQASISCRSSQSLVHSNGNTYLHWYLQKPGQSPKLLIYKVSNRFSGVPDRFSGSSSGTDFTLKISRVEAEDLGVYFCSQNTHVPPTFGGGTKLEIKR | 0.05 |
| F1.118.4 human-murine chimeric antibody (antibody, human IgG1, kappa, V domains shown) VH: QVQLQQSGAELAKPGASVKLSCKASGYSFTSYWIHWVKQRPGQGLEWIGYINPSSGYTKYNQKFKDKATLTADKSSSTAYMQLSSLTYEDSAVYYCARFGSSSFYFDYWGQGTTLTVSS VL: DIVLTQSPASLAVSLGQRATISCRASQSVSSSSYSYMHWYQQKPGQPPKLLIKYASNLDSGVPARFSGSGSGTDFTLNIHPVEEEDTATYYCQHSWEIPAFGGGTKLEIKR | 0.05 |
| F3.81.19 human-murine chimeric antibody (antibody, human IgG1, kappa, V domains shown) VH: QVQLQQSGAELVRPGASVKLSCKASGYTFTDYEMHWVKQTPVHGLEWIGTIDPETGNTAYNQKFKGKATLTADKSSSTAYMELRSLTSEDSAVYYCTRPYSLTYWGQGTLVTVSA VL: DVLLTQTPLSLPVSLGDQASISCRSSQSFVHSNGDTYLQWYLQKPGQSPKLLIYKVSNRFSGVPDRFSGSGSGTDFTLKISRVEAEDLGVYYCFQGSHVPYTFGSGTKLEIKR | 0.05 |

Q: # query: OD450 at 1 nM antibody of entry F2.39.2 human-murine chimeric antibody (antibody, human IgG1, kappa, V domains shown) VH: QVQLQQSGAELVRPGASVKVSCKASGYTFTDYEMHWMKQTPVHGLEWIGANEPETGRSAYDQKFKGKATLTADKSSSTAYMELRSLTSEDSAVYYCTRFYSFAYWGQGTLVTVSA VL: DVVMTQTPLSLPVSLGDQASISCRSSQGLVHNNGNTYLHWYLQKPGQSPKLLIYKVSNRFSGVPDRFSGSGSGTDFTLKISRVEAEDLGVYFCSQNTHVPPTFGGGTKLEIKR
Ans: 0.05

Q: Okay, and F4.21.16 human-murine chimeric antibody (antibody, human IgG1, kappa, V domains shown) VH: DVQLQESGPGLVKPSQSLSLTCSVTGYSITSGYYWNWIRQFPGNKLEWMGYISYDVTVNYNPSLKNRISITRDTSKNQFFLKLNSVTTEDTATYYCATITSVASMDHWGQGTSVTVSS VL: DILMTQTPLSLPVSLGDQASISCRSSQNIVHRNGNTYLEWYLQKPGQSPKLLLYKVSNRFSGVPDRFSGSGSGTDFTLKISRVEAEDLGIYYCFQGSHFPFTFGSGTKLEIKR ?
Ans: 0.05
